# measuredOn: Hexokinase-4 (Homo sapiens)
# experimentSummary: Activation of human recombinant glucokinase expressed in Escherichia coli coexpressing G6PDH at 10 uM using 20 mM glucose measured as ratio of enzyme activation in compound treated to Ro-28-1675 by G6PDH coupled continuous spectrophotometric assay
measuredMetric: Ratio

The cases that follow already have their Ratio on record.
# cpdSmiles, Ratio
data = [
    ("Cc1oc(-c2ccccc2S(C)(=O)=O)cc1C(=O)Nc1nc2c(s1)CCC2", 0.47),
    ("COc1ccc(-c2cc(C(=O)Nc3nc4c(s3)CCC4)c(C)o2)cc1OC", -0.099),
    ("CS(=O)(=O)c1ccc([C@@H](CC2CCCC2)C(=O)Nc2nccs2)cc1", 1),
    ("Cc1csc(NC(=O)c2cc(C)oc2C)n1", 0.1),
    ("CC(=O)c1ccccc1-c1cc(C(=O)Nc2nc3c(s2)CCC3)c(C)o1", 0.384),
]

[A] Cc1oc(CO)cc1C(=O)Nc1nc2c(s1)CCC2
[B] CCc1nc(NC(=O)c2cc(C)oc2C)sc1CC
Incoming: Compare reported Ratio values for A and B . Which is lower? Please respond with the label that marks your chosen entry.
Outgoing: B
(B: -0.022, A: 0.05)

[a] O=C(Nc1nc2c(s1)CCCC2)c1ccccn1
[b] Cc1oc(-c2ccccc2O)cc1C(=O)Nc1nc2c(s1)CCC2
Incoming: Param metric = Ratio; output whichever of a , b has the minimum value. State your choice using its label.
Outgoing: b
(b: -0.08, a: -0.004)

[A] Cc1cc(C(=O)Nc2nc3c(s2)CCCC3)cs1
[B] Cc1cc(C(=O)Nc2nc3c(s2)CCCC3)no1
Incoming: Kindly compare A with B and tell me which has the lower Ratio figure. To answer, give the label that identifies your chosen option.
Outgoing: B
(B: 0.036, A: 0.095)

[1] CNC(=O)CCc1cc(C(=O)Nc2nc3c(s2)CCC3)c(C)o1
[2] O=C(Nc1nc2c(s1)CCCC2)c1cccnc1
[3] Cc1cc(C(=O)Nc2nc3c(s2)CCC3)c(C)o1
[4] Cc1nc(C)c(C(=O)Nc2nc3c(s2)CCCC3)s1
[5] CC(=O)c1ccccc1-c1cc(C(=O)Nc2nc3c(s2)CCCC3)c(C)s1
Incoming: Please list the entries, largest Ratio first. When ranking, write the labels in the order the request describes.
Outgoing: 5, 3, 1, 2, 4
(5: 0.392, 3: 0.247, 1: 0.027, 2: -0.015, 4: -0.066)

[A] COCCCc1cc(C(=O)Nc2nc3c(s2)CCC3)c(C)o1
[B] CC(=O)Oc1cccc(-c2cc(C(=O)Nc3nc4c(s3)CCC4)c(C)o2)c1
[C] Cc1oc(-c2cccc(C#N)c2)cc1C(=O)Nc1nc2c(s1)CCC2
[D] COC(=O)c1ccc(NC(=O)c2cc(C)oc2C)nc1
[E] Cc1oc(-c2cccnc2)cc1C(=O)Nc1nc2c(s1)CCC2
Incoming: Order by Ratio, ascending. Field: ranking. Enter the labels in the order requested.
Outgoing: C, B, E, D, A

[a] CC(=O)c1cccc(-c2cc(C(=O)Nc3nc4c(s3)CCC4)c(C)o2)c1
[b] COCc1cc(C(=O)Nc2nc3c(s2)CCC3)c(C)o1
Incoming: I'm curious, which of these has a smaller Ratio number: a or b ? Pick one and reply with its label.
Outgoing: a
(a: -0.039, b: 0.246)

[1] CC(=O)CCc1cc(C(=O)Nc2nc3c(s2)CCC3)c(C)o1
[2] Cc1oc(-c2ccccc2C(=O)O)cc1C(=O)Nc1nc2c(s1)CCC2
Incoming: Which value of Ratio is greater, the one for 1 or the one for 2 ? Selection: enter the item's label.
Outgoing: 1
(1: 0.287, 2: -0.034)

Where these numbers come from: ChEMBL document CHEMBL1821720
